The measured values listed here are drawn from patent US8772343B2.

Consider the following molecules; for each one, report its IC50.
biological target: Nav1.7 (or SCN9A) channel (Homo sapiens); construct: expressed in transfected cells; assay: Nav1.7 PatchXpress automated whole-cell electrophysiology in HEK cells expressing hSCN9A; format: cell-based; conditions: estimated IC50 from single point data, PatchXpress assay, held at V1/2 of inactivation, read-out: Nav1.7 EIC50
Sequence (Q15858 whole entry): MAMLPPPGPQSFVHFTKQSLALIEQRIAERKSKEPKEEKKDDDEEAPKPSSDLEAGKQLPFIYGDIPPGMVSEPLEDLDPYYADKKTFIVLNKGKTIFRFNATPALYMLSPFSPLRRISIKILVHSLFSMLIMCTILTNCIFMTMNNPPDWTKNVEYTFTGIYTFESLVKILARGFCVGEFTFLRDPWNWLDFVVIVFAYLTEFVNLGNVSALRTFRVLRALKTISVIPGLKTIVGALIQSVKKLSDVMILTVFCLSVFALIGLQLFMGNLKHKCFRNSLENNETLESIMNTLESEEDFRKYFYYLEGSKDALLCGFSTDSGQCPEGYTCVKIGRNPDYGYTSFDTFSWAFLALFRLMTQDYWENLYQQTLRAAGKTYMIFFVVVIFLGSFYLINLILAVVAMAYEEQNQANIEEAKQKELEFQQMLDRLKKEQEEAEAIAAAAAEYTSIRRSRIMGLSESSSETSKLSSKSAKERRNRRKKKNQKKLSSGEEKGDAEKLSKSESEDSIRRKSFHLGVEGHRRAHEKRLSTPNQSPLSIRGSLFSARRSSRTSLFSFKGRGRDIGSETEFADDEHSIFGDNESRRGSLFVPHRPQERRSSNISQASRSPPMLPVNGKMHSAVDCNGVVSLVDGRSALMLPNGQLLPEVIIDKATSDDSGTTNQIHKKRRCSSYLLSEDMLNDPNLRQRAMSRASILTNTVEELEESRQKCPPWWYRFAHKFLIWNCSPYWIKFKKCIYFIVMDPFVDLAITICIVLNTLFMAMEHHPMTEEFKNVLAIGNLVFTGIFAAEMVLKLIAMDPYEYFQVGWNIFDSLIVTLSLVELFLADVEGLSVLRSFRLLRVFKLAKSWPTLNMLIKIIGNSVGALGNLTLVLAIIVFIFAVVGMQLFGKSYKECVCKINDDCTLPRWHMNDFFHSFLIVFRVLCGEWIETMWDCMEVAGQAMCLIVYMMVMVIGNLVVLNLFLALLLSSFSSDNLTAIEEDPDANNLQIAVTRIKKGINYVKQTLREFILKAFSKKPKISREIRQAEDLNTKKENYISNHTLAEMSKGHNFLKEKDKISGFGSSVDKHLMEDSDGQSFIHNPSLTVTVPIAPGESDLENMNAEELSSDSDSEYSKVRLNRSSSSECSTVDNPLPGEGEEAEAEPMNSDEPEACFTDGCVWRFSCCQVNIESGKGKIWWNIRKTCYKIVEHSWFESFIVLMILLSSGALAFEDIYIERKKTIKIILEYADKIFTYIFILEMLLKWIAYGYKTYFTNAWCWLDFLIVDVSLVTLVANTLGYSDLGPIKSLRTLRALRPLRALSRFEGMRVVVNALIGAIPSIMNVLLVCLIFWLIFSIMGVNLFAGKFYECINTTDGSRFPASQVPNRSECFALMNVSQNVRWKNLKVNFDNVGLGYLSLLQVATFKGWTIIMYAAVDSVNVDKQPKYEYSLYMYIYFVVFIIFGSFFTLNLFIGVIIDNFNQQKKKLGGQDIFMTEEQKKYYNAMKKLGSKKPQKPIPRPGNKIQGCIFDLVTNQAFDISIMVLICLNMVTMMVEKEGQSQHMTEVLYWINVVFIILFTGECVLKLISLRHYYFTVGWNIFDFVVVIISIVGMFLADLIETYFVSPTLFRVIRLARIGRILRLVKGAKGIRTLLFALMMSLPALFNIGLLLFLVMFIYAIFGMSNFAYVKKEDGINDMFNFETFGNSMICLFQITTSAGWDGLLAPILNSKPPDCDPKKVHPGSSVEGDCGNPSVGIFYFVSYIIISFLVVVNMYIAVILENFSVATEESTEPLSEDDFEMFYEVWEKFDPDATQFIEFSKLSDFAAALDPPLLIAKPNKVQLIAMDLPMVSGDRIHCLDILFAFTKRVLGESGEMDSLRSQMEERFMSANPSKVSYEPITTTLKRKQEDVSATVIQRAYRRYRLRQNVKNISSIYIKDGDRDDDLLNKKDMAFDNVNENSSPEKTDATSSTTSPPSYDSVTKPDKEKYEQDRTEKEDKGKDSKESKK
Counter-ions that a name gives are not always drawn.
One number for each entry, in nM.

Some solved entries appear below for comparison.
COc1ncccc1-c1cc(C(=O)NS(C)(=O)=O)ccc1Oc1cccc(F)c1 | 370
COc1ncccc1-c1cc(C(=O)NS(C)(=O)=O)ccc1Oc1ccc(C#N)c(Cl)c1 | 2500
CS(=O)(=O)NC(=O)c1ccc(Oc2ccc(Cl)cc2)c(-c2ccccc2C#N)c1 | 290
COc1ncccc1-c1cc(C(=O)NS(C)(=O)=O)ccc1Oc1cc(F)cc(F)c1 | 440
CCc1cccc(Oc2ccc(C(=O)NS(C)(=O)=O)cc2-c2cccnc2OC)c1 | 160

Provide the reported IC50 of each entry below, same order.
1. CCc1cc(Oc2ccc(C(=O)NS(C)(=O)=O)cc2-c2ccn[nH]2)ccc1Cl [Example 95, hydrochloride salt]
2. CCOc1ccc(-c2cc(C(=O)NS(C)(=O)=O)ccc2Oc2ccc(Cl)cc2)cc1
3. CS(=O)(=O)NC(=O)c1ccc(Oc2ccc(Cl)cc2)c(-c2cncnc2)c1
4. CS(=O)(=O)NC(=O)c1ccc(Oc2ccc(Cl)cc2)c(-c2ccc(Cl)cn2)c1
5. COc1ncccc1-c1cc(C(=O)NS(C)(=O)=O)ccc1Oc1ccc(Cl)cc1
6. COc1ncccc1-c1cc(C(=O)NS(C)(=O)=O)ccc1Oc1cccc(C(C)C)c1

100
3500
2800
340
92
120
